The entries below come with measured inhibition in vivo at 100 mg/kg values attached.
Tested on: Plasmodium berghei (strain ANKA)
protocol.notes: Activity against Plasmodium berghei in vivo, reduction of parasitemia in infected mice
settings: Plasmodium berghei, sc, subcutaneously, single dose 100 mg/kg, 48 h after treatment, read-out: in vivo sc act. % (percentage reduction of the parasitemia)
endpoint: inhibition in vivo at 100 mg/kg

- CO/C=C(/C(=O)OC)c1ccccc1CCCCc1ccc(C(F)(F)F)cc1C(F)(F)F [Example 211]: 92%
- CO/C=C(/C(=O)OC)c1ccccc1CCCCc1ccccc1C(F)(F)F [Example 210]: 99%
- CO/C=C(/C(=O)OC)c1ccccc1/C=C/C=C/c1ccccc1C(F)(F)F [Example 185]: 100%
- CO/C=C(/C(=O)OC)c1ccccc1/C=C/C=C/c1ccccc1Br [Example 203]: 90%
- COC=C(C(=O)OC)c1ccccc1C=CC=Cc1ccc(C(F)(F)F)cc1C(F)(F)F [Example 199]: 100%
- CON=C(C(=O)OC)c1ccccc1/C=C/C=C/c1ccccc1C(F)(F)F [Example 206]: 44%
- CO/C=C(/C(=O)OC)c1ccccc1/C=C/c1cc(OC)c(OC)cc1[N+](=O)[O-] [Example 126]: 76%
- CO/C=C(/C(=O)OC)c1ccccc1/C=C/CSc1ccccc1C(F)(F)F [Example 120]: 91%
- CO/C=C(/C(=O)OC)c1ccccc1/C=C/COC1CCCCO1 (stereo not drawn) [Example 251]: 74%

----------
System: Plasmodium berghei (strain ANKA)
protocol.notes: Activity against Plasmodium berghei in vivo, reduction of parasitemia in infected mice
settings: Plasmodium berghei, po, perorally, single dose 100 mg/kg, 48 h after treatment, read-out: in vivo po act. % (percentage reduction of the parasitemia)
endpoint: inhibition in vivo at 100 mg/kg

• CO/C=C(/C(=O)OC)c1ccccc1/C=C/CSc1ccccc1C(F)(F)F = 46%
• CO/C=C(/C(=O)OC)c1ccccc1/C=C/c1ccc(OC)c(OC)c1Cl = 40%
• CO/C=C(/C(=O)OC)c1ccccc1/C=C/COC1CCCCO1 (stereo not shown) = 40%
• CO/C=C(/C(=O)OC)c1ccccc1CCCCc1ccccc1C(F)(F)F = 82%
• CON=C(C(=O)OC)c1ccccc1/C=C/C=C/c1ccccc1C(F)(F)F = 46%
• CO/C=C(/C(=O)OC)c1ccccc1/C=C/c1cc(OC)c(OC)cc1[N+](=O)[O-] = 79%
• CO/C=C(/C(=O)OC)c1ccccc1CSc1c(F)c(F)c(F)c(F)c1F = 80%

Sourced from patent US6084120A
